These measurements were taken from patent US20240270821A1.

system: human GcgR (Homo sapiens)
Sequence (P47871 26-477): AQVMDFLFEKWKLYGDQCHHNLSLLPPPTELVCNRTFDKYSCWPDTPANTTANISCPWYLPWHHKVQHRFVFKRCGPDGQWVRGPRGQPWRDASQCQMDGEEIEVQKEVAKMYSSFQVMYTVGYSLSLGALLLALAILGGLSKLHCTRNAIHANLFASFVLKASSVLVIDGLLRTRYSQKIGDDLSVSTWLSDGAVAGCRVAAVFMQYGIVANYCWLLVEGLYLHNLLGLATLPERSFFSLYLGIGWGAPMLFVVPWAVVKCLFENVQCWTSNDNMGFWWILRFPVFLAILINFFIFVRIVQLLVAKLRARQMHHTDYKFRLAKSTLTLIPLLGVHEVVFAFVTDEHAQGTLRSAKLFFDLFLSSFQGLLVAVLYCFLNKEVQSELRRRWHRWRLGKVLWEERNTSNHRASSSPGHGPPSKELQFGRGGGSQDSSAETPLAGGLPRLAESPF
procedure_summary: Functional cAMP activity in the presence of 1% HSA
Assay type: cell-based
stated_conditions: read-out: cAMP Rel EC50, hGcgR
Starred links: 1 amine or outer side, 2 acyl side, 3 side chain; linkers in the order of their positions; H or OH if unused. Non-standard residues stand in square brackets, D forms with d. Groups on a side chain read outwards from the residue. *: point of attachment. C18 diacid = O=C(O)CCCCCCCCCCCCCCCCC(=O)*; αMePhe(2-F) = C[C@](N)(Cc1ccccc1F)C(=O)O; γGlu = O=C(O)[C@H](CCC(=O)[*:2])N[*:1]; αMe4Pal = C[C@](N)(Cc1ccncc1)C(=O)O; αMeY = C[C@](N)(Cc1ccc(O)cc1)C(=O)O; 4Pal = N[C@@H](Cc1ccncc1)C(=O)O; Aad = N[C@@H](CCCC(=O)O)C(=O)O; αMeL = CC(C)C[C@](C)(N)C(=O)O; αMeS = C[C@](N)(CO)C(=O)O; Orn = NCCC[C@H](N)C(=O)O; AEEA = NCCOCCOCC(=O)O; Aib = CC(C)(N)C(=O)O
endpoint: pEC50
Scale for pEC50: -log10 of concentration given in mol/L; no unit attached.

{"substance": "H-Y[Aib]QGT[αMePhe(2-F)]TSD[4Pal]SI[αMeL]LDKK([γGlu-γGlu-C18 diacid])AQ[Aib]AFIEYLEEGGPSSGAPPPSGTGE-NH2 [Example 622]", "endpoint": "pEC50", "value": 6.19}
{"substance": "H-Y[Aib]QGTFTSD[4Pal]SQ[αMeL]LD[Orn]K([AEEA-γGlu-C18 diacid])AQ[αMe4Pal]AFI[dE][αMeY]LIEGGPSSGAPPPSGSEE-NH2 [Example 1042]", "endpoint": "pEC50", "value": 5.72}
{"substance": "H-Y[Aib]QGT[αMePhe(2-F)]TSD[4Pal]SILLDKK([AEEA-γGlu-C18 diacid])AQ[Aib]AFIEYL[Aad]EGGPSSGAPPPSGTGE-NH2 [Example 663]", "endpoint": "pEC50", "value": 6.65}
{"substance": "H-Y[Aib]QGT[αMePhe(2-F)]TSD[4Pal][αMeS]I[αMeL]LD[Orn]K([AEEA-γGlu-C18 diacid])AQ[αMe4Pal]EFI[dE][αMeY]LIEGGPPS[Aib][Orn]PPP[Orn]GGGE-NH2 [Example 1197]", "endpoint": "pEC50", "value": 6.54}

In the following, a different substance is considered.
-- ask Return pEC50 for the following substance: H-Y[Aib]QGTFTSD[4Pal]S[Orn][αMeL]LD[Orn]K([γGlu-γGlu-C18 diacid])AQ[αMe4Pal]AFIEYLIE[Aib]GPSSGAPPPSGS-NH2 [Example 939]
-- reply 6.37

* * *

system: human GcgR (Homo sapiens)
procedure_summary: Functional cAMP activity in the presence of 1% HSA
Type: cell-based
stated_conditions: read-out: cAMP Rel EC50, hGcgR
Starred links: 1 amine or outer side, 2 acyl side, 3 side chain; linkers in the order of their positions; H or OH if unused. Non-standard residues stand in square brackets, D forms with d. Groups on a side chain read outwards from the residue. No end group written: not given here. *: point of attachment. C18 diacid = O=C(O)CCCCCCCCCCCCCCCCC(=O)*; αMePhe(2-F) = C[C@](N)(Cc1ccccc1F)C(=O)O; γGlu = O=C(O)[C@H](CCC(=O)[*:2])N[*:1]; αMe4Pal = C[C@](N)(Cc1ccncc1)C(=O)O; αMeY = C[C@](N)(Cc1ccc(O)cc1)C(=O)O; 4Pal = N[C@@H](Cc1ccncc1)C(=O)O; αMeL = CC(C)C[C@](C)(N)C(=O)O; αMeS = C[C@](N)(CO)C(=O)O; Orn = NCCC[C@H](N)C(=O)O; AEEA = NCCOCCOCC(=O)O; Aib = CC(C)(N)C(=O)O
Listed here are substances together with their documented pEC50.
Scale for pEC50: -log10 of concentration given in mol/L; no unit attached.

Past entries and their recorded results:
{"substance": "H-Y[Aib]QGT[αMePhe(2-F)]TSD[4Pal]SI[αMeL]LD[Orn]K([γGlu-γGlu-C18 diacid])AQ[αMe4Pal][Orn]FI[dE][αMeY]LIEGGPSSGEPPPETE-NH2 [Example 686]", "endpoint": "pEC50", "value": 6.77}
{"substance": "H-Y[Aib]QGTFTSDFSK[αMeL]LDKK([AEEA-γGlu-C18 diacid])AQ[Aib]AFIEYLIE[Aib]SPSSGAPPPSGS-NH2 [Example 805]", "endpoint": "pEC50", "value": 5.92}
{"substance": "H-Y[Aib]QGTFTSDFS[Orn][αMeL]LDKK([AEEA-γGlu-C18 diacid])AQ[Aib]AFIEYLLEGGPSSGAPPPGGT-NH2 [Example 158]", "endpoint": "pEC50", "value": 6.49}
{"substance": "Y[Aib]QGTFTSD[4Pal]SK[αMeL]LDKK([AEEA-γGlu-C18 diacid])AQ[Aib]AFIEYLIE[Aib]GESSGEPPPSGE-NH2 [Example 281]", "endpoint": "pEC50", "value": 5.86}
{"substance": "H-Y[Aib]QGTFTSDFS[Orn][αMeL]LDKK([AEEA-γGlu-C18 diacid])AQ[Aib]AFIEYLLEGGPSSGAPPPGGQ-NH2 [Example 159]", "endpoint": "pEC50", "value": 6.32}

-- ask Return pEC50 for the following substance: Y[Aib]QGT[αMePhe(2-F)]TSD[4Pal][αMeS]I[αMeL]LD[Orn]K([AEEA-γGlu-C18 diacid])AQ[αMe4Pal]EFI[dE][αMeY]LIEGGPSSGEPPPESE-NH2 [Example 1147]
-- reply 6.78
